Data credit: BigSolDB 2.1

details: in methyl acetate, 288.15 K
EXPERIMENTAL READOUT: solubility (mole fraction)
The answer should be a number; do not append a unit.

[ask] Quick check: solubility (mole fraction) of "CC1(C)CC(NCCCCCCNC2CC(C)(C)NC(C)(C)C2)CC(C)(C)N1" ?
[reply] 0.0663

----------
details: in acetonitrile, 273.15 K
EXPERIMENTAL READOUT: solubility (mole fraction)

[ask] Quick check: solubility (mole fraction) of "CC1(C)CC(NCCCCCCNC2CC(C)(C)NC(C)(C)C2)CC(C)(C)N1" ?
[reply] 0.00115

----------
details: in n-propyl acetate, 283.15 K
EXPERIMENTAL READOUT: solubility (mole fraction)
The answer should be a number; do not append a unit.

[ask] Quick check: solubility (mole fraction) of "CC1(C)CC(NCCCCCCNC2CC(C)(C)NC(C)(C)C2)CC(C)(C)N1" ?
[reply] 0.063
